# Assay: Cytotoxicity against human WI-38 cells incubated for 72 hrs by MTT assay
# Assay type: toxicity, cell-based
Property: IC50 at 72 h; scope: individual compounds

Compound | IC50 at 72 h / nM
CN1C[C@@H](c2cn(-c3ccccc3)nc2-c2ccccc2)[C@H](C(=O)c2ccc([N+](=O)[O-])cc2)[C@@]12C(=O)Nc1ccccc12 | 741
O=C(c1ccccc1[N+](=O)[O-])[C@H]1[C@H](c2cn(-c3ccccc3)nc2-c2ccccc2)[C@@H]2CC3CCCCC3N2[C@]12C(=O)Nc1cc(Cl)ccc12 (stereo partly drawn) | 435
CN1C[C@@H](c2cn(-c3ccccc3)nc2-c2ccccc2)[C@H](C(=O)c2ccccc2)[C@@]12C(=O)Nc1ccc(Cl)cc12 | 545

----------
# System: WI-38
# Assay: Cytotoxicity against human WI-38 cells by measuring effective concentration incubated for 72 hrs by MTT assay
# Type: toxicity, cell-based
# Details: wi-38, 72 h
Test Readout: log10 of EC100 (log10 of the value in µM)

Compound | Test Readout | Result
COc1ccc2c(c1)[C@@]1(C(=O)N2)[C@@H](C(=O)c2ccc([N+](=O)[O-])cc2)[C@H](c2cn(-c3ccccc3)nc2-c2ccccc2)CN1C | log10 of EC100 | -0.27
O=C(c1ccc(Br)cc1)[C@H]1[C@H](c2cn(-c3ccccc3)nc2-c2ccccc2)[C@@H]2CC3CCCCC3N2[C@]12C(=O)Nc1cc(Cl)ccc12 (stereo partly specified) | log10 of EC100 | -0.23
COc1cccc2c1C(=O)c1c(O)c3c(c(O)c1C2=O)C[C@@](O)(C(=O)CO)C[C@@H]3O[C@H]1C[C@H](N)[C@H](O)[C@H](C)O1 | log10 of EC100 | -1.48
CN1C[C@@H](c2cn(-c3ccccc3)nc2-c2ccccc2)[C@H](C(=O)c2ccc([N+](=O)[O-])cc2)[C@@]12C(=O)Nc1ccccc12 | log10 of EC100 | -0.43
COc1ccc2c(c1)[C@@]1(C(=O)N2)[C@@H](C(=O)c2ccc([N+](=O)[O-])cc2)[C@H](c2cn(-c3ccccc3)nc2-c2ccccc2)[C@@H]2CC3CCCCC3N21 (stereo partly specified) | log10 of EC100 | -0.44
O=C(c1ccccc1)[C@H]1[C@H](c2cn(-c3ccccc3)nc2-c2ccccc2)[C@@H]2CC3CCCCC3N2[C@]12C(=O)Nc1ccc(Cl)cc12 (stereo partly specified) | log10 of EC100 | -0.55

----------
# Tested on: A549
# Assay: cells
# Details: Homo sapiens, A549, 72 h
# Description: Cytotoxicity against human A549 cells incubated for 72 hrs by MTT assay
pIC50: −log10 of the molar value.

Molecule | pIC50
CN1C[C@@H](c2cn(-c3ccccc3)nc2-c2ccccc2)[C@H](C(=O)c2ccccc2)[C@@]12C(=O)Nc1ccc(Cl)cc12 | 6.55
O=C(c1ccccc1[N+](=O)[O-])[C@H]1[C@H](c2cn(-c3ccccc3)nc2-c2ccccc2)[C@@H]2CC3CCCCC3N2[C@]12C(=O)Nc1ccccc12 (stereo partly drawn) | 6.77
O=C(c1ccc(Br)cc1)[C@H]1[C@H](c2cn(-c3ccccc3)nc2-c2ccccc2)[C@@H]2CC3CCCCC3N2[C@]12C(=O)Nc1cc(Cl)ccc12 (stereo partly drawn) | 6.69

----------
# Test system: A549
# Assay: cells
# Details: Homo sapiens, A549, 72 h
pIC50: −log10 of the molar value.

Molecule | pIC50
O=C(c1ccccc1)[C@H]1[C@H](c2cn(-c3ccccc3)nc2-c2ccccc2)[C@@H]2CC3CCCCC3N2[C@]12C(=O)Nc1ccccc12 (stereo partly specified) | 6.51
O=C(c1ccc([N+](=O)[O-])cc1)[C@H]1[C@H](c2cn(-c3ccccc3)nc2-c2ccccc2)[C@@H]2CC3CCCCC3N2[C@]12C(=O)Nc1ccccc12 (stereo partly specified) | 6.69
CN1C[C@@H](c2cn(-c3ccccc3)nc2-c2ccccc2)[C@H](C(=O)c2ccc([N+](=O)[O-])cc2)[C@@]12C(=O)Nc1ccccc12 | 6.65
O=C(c1ccccc1[N+](=O)[O-])[C@H]1[C@H](c2cn(-c3ccccc3)nc2-c2ccccc2)[C@@H]2CC3CCCCC3N2[C@]12C(=O)Nc1cc(Cl)ccc12 (stereo partly specified) | 6.89
O=C(c1ccc([N+](=O)[O-])cc1)[C@H]1[C@H](c2cn(-c3ccccc3)nc2-c2ccccc2)[C@@H]2CC3CCCCC3N2[C@]12C(=O)Nc1ccc(Cl)cc12 (stereo partly specified) | 7.05
CN1C[C@@H](c2cn(-c3ccccc3)nc2-c2ccccc2)[C@H](C(=O)c2ccccc2)[C@@]12C(=O)Nc1ccccc12 | 6.46

----------
# Assay: Selectivity index, ratio of IC50 for cytotoxicity against human WI-38 cells to IC50 for cytotoxicity against human A549 cells
# Assay type: toxicity, cell-based
# Details: WI-38 cells versus A549 cells, read-out: Ratio IC50
Listing: selectivity ratio of selected compounds
Test Readout: selectivity ratio

Compound | Result
O=C(c1ccccc1[N+](=O)[O-])[C@H]1[C@H](c2cn(-c3ccccc3)nc2-c2ccccc2)[C@@H]2CC3CCCCC3N2[C@]12C(=O)Nc1ccccc12 (some centres undefined) | 2.43
O=C(c1ccccc1)[C@H]1[C@H](c2cn(-c3ccccc3)nc2-c2ccccc2)[C@@H]2CC3CCCCC3N2[C@]12C(=O)Nc1ccc(Cl)cc12 (some centres undefined) | 2.02
O=C(c1ccccc1[N+](=O)[O-])[C@H]1[C@H](c2cn(-c3ccccc3)nc2-c2ccccc2)[C@@H]2CC3CCCCC3N2[C@]12C(=O)Nc1cc(Cl)ccc12 (some centres undefined) | 3.35
CN1C[C@@H](c2cn(-c3ccccc3)nc2-c2ccccc2)[C@H](C(=O)c2ccc([N+](=O)[O-])cc2)[C@@]12C(=O)Nc1ccc(Cl)cc12 | 3.66
CN1C[C@@H](c2cn(-c3ccccc3)nc2-c2ccccc2)[C@H](C(=O)c2ccccc2)[C@@]12C(=O)Nc1ccccc12 | 3.79
O=C(c1ccc(Br)cc1)[C@H]1[C@H](c2cn(-c3ccccc3)nc2-c2ccccc2)[C@@H]2CC3CCCCC3N2[C@]12C(=O)Nc1ccccc12 (some centres undefined) | 2.95
O=C(c1ccccc1)[C@H]1[C@H](c2cn(-c3ccccc3)nc2-c2ccccc2)[C@@H]2CC3CCCCC3N2[C@]12C(=O)Nc1cc(Cl)ccc12 (some centres undefined) | 2.65
CN1C[C@@H](c2cn(-c3ccccc3)nc2-c2ccccc2)[C@H](C(=O)c2ccc([N+](=O)[O-])cc2)[C@@]12C(=O)Nc1ccccc12 | 3.32
CN1C[C@@H](c2cn(-c3ccccc3)nc2-c2ccccc2)[C@H](C(=O)c2ccccc2)[C@@]12C(=O)Nc1ccc(Cl)cc12 | 1.93
COc1ccc2c(c1)[C@@]1(C(=O)N2)[C@@H](C(=O)c2ccc([N+](=O)[O-])cc2)[C@H](c2cn(-c3ccccc3)nc2-c2ccccc2)CN1C | 6.34
O=C(c1ccc([N+](=O)[O-])cc1)[C@H]1[C@H](c2cn(-c3ccccc3)nc2-c2ccccc2)[C@@H]2CC3CCCCC3N2[C@]12C(=O)Nc1ccccc12 (some centres undefined) | 3.47
O=C(c1ccc(Br)cc1)[C@H]1[C@H](c2cn(-c3ccccc3)nc2-c2ccccc2)[C@@H]2CC3CCCCC3N2[C@]12C(=O)Nc1cc(Cl)ccc12 (some centres undefined) | 5.05
O=C(c1ccccc1)[C@H]1[C@H](c2cn(-c3ccccc3)nc2-c2ccccc2)[C@@H]2CC3CCCCC3N2[C@]12C(=O)Nc1ccccc12 (some centres undefined) | 2.69
COc1ccc2c(c1)[C@@]1(C(=O)N2)[C@@H](C(=O)c2ccc([N+](=O)[O-])cc2)[C@H](c2cn(-c3ccccc3)nc2-c2ccccc2)[C@@H]2CC3CCCCC3N21 (some centres undefined) | 3.65

----------
# Tested on: A549
# Assay: cells
# Details: Homo sapiens, A549, 72 h
Test Readout: IC50 (nM)

Compound | Result
O=C(c1ccccc1[N+](=O)[O-])[C@H]1[C@H](c2cn(-c3ccccc3)nc2-c2ccccc2)[C@@H]2CC3CCCCC3N2[C@]12C(=O)Nc1ccc(Cl)cc12 (some centres not stated) | 96
O=C(c1ccc(Br)cc1)[C@H]1[C@H](c2cn(-c3ccccc3)nc2-c2ccccc2)[C@@H]2CC3CCCCC3N2[C@]12C(=O)Nc1ccccc12 (some centres not stated) | 158
COc1ccc2c(c1)[C@@]1(C(=O)N2)[C@@H](C(=O)c2ccc([N+](=O)[O-])cc2)[C@H](c2cn(-c3ccccc3)nc2-c2ccccc2)CN1C | 235
CN1C[C@@H](c2cn(-c3ccccc3)nc2-c2ccccc2)[C@H](C(=O)c2ccc([N+](=O)[O-])cc2)[C@@]12C(=O)Nc1ccc(Cl)cc12 | 131
COc1ccc2c(c1)[C@@]1(C(=O)N2)[C@@H](C(=O)c2ccc([N+](=O)[O-])cc2)[C@H](c2cn(-c3ccccc3)nc2-c2ccccc2)[C@@H]2CC3CCCCC3N21 (some centres not stated) | 212
O=C(c1ccccc1)[C@H]1[C@H](c2cn(-c3ccccc3)nc2-c2ccccc2)[C@@H]2CC3CCCCC3N2[C@]12C(=O)Nc1cc(Cl)ccc12 (some centres not stated) | 192
O=C(c1ccccc1)[C@H]1[C@H](c2cn(-c3ccccc3)nc2-c2ccccc2)[C@@H]2CC3CCCCC3N2[C@]12C(=O)Nc1ccc(Cl)cc12 (some centres not stated) | 231

Reference source for all entries: ChEMBL document CHEMBL5584324
